Source of measurements: patent US20220306762A1

Would you kindly list ELISA 1 ug/ml for each of these binders?
measured-target: T1, His-tagged mouse CD38 (ACRO Biosystems #CD8-M5223) (mouse, UniProt P56528 45-304)
T1 construct: bought recombinant protein with His tag; also called Murine
T1 sequence (looked up): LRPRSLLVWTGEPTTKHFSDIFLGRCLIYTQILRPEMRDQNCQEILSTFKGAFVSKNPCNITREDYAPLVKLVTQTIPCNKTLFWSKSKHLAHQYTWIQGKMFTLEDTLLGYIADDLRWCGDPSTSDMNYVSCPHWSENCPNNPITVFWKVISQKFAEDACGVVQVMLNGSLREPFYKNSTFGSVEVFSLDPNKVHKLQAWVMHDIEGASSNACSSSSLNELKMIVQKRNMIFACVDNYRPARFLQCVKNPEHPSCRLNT
test: ELISA, coated His-CD38
Numbers only.

Guide cases for ELISA 1 ug/ml, answers given:
40566p1.C9 (scFv, V domains shown, tested as scFv-Fc supernatant) VH: DVQLVESGGGVVRPGESLRLSCAASGFTFDNYDMTWVRQAPGEGLEWVSFISSRGTFTYYTDSVKGRFTISRDNSKNTLYLQMNSLRAEDTAIYYCTKDSGEYYFFDYWGLGTLVTVSS VL: ETVMTQSPATLSVSPGERATFSCRASQSVNSKLAWYQQKPGQAPRLLIYDASRRATGIPDRFSGSGSGTEFTLTISSLQSEDFAVYFCQQYYDWPPLTFGGGTKVEIK
1.97
40617p1.2.H8 (scFv, V domains shown, tested as scFv-Fc supernatant) VH: EVQLLESGGGLVQPGGSLRLSCAASGFTFSSYWMTWVRQAPGKGLEWVSAISSYGGNYMYYADSVKGRFTISRDNSKDTLYLQMNSLRAEDTAVYYCAKDWDDGMDVWGQGTTVTVSS VL: EIVMTQSPATLSVSPGDRATLSCRASQSVNSKLAWYQQKPGQAPRLLIYAASSRATGIPDRFSGSGSGTDFTLTISRLEPEDFAVYYCQQYYDLPPYSFGGGTKVEIK
1.5
40769p1.1.G12 (scFv, V domains shown, tested as scFv-Fc supernatant) VH: EVQLLESGGGLVQPGGSLRLSCAASGFTFDDYVMSWVRQAPGKGLEWVSEISESDGSNKYYADSVKGRFIISRDNSKNTLYLQMNSLRAEDTAVYYCARLEPEKYYGMDVWGQGTTVTVSS VL: QSVLTQPPSASGTPGQRVTISCSGSNSNIGNNLVSWYQQLPGTAPKLLIYRHDHRPSGVPDRFSGSKSGTSASLAISGLQSEDEADYYCATWDDSLNGRAFGGGTKLTVL
0.056
40566p1.C11 (scFv, V domains shown, tested as scFv-Fc supernatant) VH: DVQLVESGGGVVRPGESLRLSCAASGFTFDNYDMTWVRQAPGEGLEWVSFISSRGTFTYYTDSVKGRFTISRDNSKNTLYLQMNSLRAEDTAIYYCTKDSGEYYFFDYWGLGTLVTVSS VL: EIVLTQSPGTLSLSPGERATLSCRASQTVGSKLAWYQQKPGQAPRLLIFSASSRATGIPARFSGSGSGTEFTLTISSLQSEDFAVYYCQQYYDWPPLTFGGGTKVEIK
1.6

Look up ELISA 1 ug/ml for this binder: 40617p1.2.A3 (scFv, V domains shown, tested as scFv-Fc supernatant) VH: EVQLLESGGGLVQPGGSLRLSCAASGFTFSNYWMTWVRQAPGKGLEWVSAISSYGGNYIYYADSVKGRFTISRDNSKDTLYLQMNSLRAEDTAVYYCAKDWDDGMDVWGQGTTVTVSS VL: EIVMTQSPAVLSVSPGERATLSCRASQSVNSKLAWYQQKPGQAPRLLIYGASTRAAGIPDRFSGSGSGTDFTLTISSPQSEDFAVYYCQHYYDLPPYSFGGGTKVEIK
0.745
